Value source: ChEMBL document CHEMBL1133101

Can you tell me Activity for the items I'm about to list?
systemTested: Sodium-dependent serotonin transporter (Homo sapiens) (UniProt P31645)
Sequence (P31645 whole entry, looked up): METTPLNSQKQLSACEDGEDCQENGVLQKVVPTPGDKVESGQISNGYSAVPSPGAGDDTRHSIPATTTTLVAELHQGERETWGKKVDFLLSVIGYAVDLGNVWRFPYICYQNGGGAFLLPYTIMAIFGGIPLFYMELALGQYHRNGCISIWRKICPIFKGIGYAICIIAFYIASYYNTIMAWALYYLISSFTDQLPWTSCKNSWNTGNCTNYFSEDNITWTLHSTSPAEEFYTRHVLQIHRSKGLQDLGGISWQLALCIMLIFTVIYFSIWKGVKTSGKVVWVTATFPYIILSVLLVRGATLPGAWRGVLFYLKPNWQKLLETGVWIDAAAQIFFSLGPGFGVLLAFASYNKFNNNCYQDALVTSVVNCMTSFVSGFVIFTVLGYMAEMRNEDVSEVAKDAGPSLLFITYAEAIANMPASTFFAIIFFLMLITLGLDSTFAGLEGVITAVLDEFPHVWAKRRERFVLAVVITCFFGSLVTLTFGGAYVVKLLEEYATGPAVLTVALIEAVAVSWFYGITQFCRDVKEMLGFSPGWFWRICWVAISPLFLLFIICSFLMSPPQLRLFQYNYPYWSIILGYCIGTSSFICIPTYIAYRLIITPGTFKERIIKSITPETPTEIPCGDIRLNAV
protocolDetails: % Decrease of 5-HT carrier-receptor -bound radioactivity using paroxetine as a radioligand.
Design: concentration or dose not given beside the values
Give your result in % as a bare value.

Activity in this record for COc1cc2c(cc1OC)C1c3[nH]c4ccccc4c3CCN1CC2 (configuration not stated) : -8

// Activity lookup, compound = c1ccc2c3c([nH]c2c1)C1c2[nH]c4ccccc4c2CCN1CC3 , result: -45

Activity reported for this compound COc1cc2c(cc1OC)Cc1[nH]c3ccccc3c1CCN(C)CC2 : -2

Sure, the documented Activity for C[N+]12CCc3c([nH]c4ccccc34)C1c1[nH]c3ccccc3c1CC2 (configuration not stated) is -33

Noted for c1ccc2c(c1)CCN1CCc3c([nH]c4ccccc34)C21 (configuration not stated) : its Activity reads -32

Looking up CN1CCc2ccccc2Cc2[nH]c3ccccc3c2CC1 , I found its Activity recorded as -8

According to the records, this compound CN1CCc2c([nH]c3ccccc23)Cc2[nH]c3ccccc3c2CC1 displays Activity of -13

* * *

protocolDetails: Percent decrease in Bradykinin receptor binding
Parameters: concentration or dose not given beside the values
For each entry below, report its Activity value.
Dear colleague, please send the value followed by its unit.

The recorded Activity for C[N+]12CCc3c([nH]c4ccccc34)C1c1[nH]c3ccccc3c1CC2 (configuration not stated) is -4%

Lab note: measured Activity of c1ccc2c3c([nH]c2c1)C1c2[nH]c4ccccc4c2CCN1CC3 was 2%

// CN1CCc2ccccc2Cc2[nH]c3ccccc3c2CC1 : Activity value = -2%

// Activity lookup, compound = c1ccc2c(c1)CCN1CCc3c([nH]c4ccccc34)C21 (configuration not stated) , result: -2%

Value of Activity reported for the compound COc1cc2c(cc1OC)Cc1[nH]c3ccccc3c1CCN(C)CC2 is -19%

Activity reported for this compound COc1cc2c(cc1OC)C1c3[nH]c4ccccc4c3CCN1CC2 (configuration not stated) : 9%

// Activity value for CN1CCc2c([nH]c3ccccc23)Cc2[nH]c3ccccc3c2CC1 : -21%

* * *

systemTested: Angiotensin II receptor (Homo sapiens) (UniProt P30556+P50052)
protocolDetails: Percent decrease of Angiotensin II receptor binding
Assay type: protein assay
Design: concentration or dose not given beside the values
parameter: Activity
Give me the value, and tack the unit on after it.

C[N+]12CCc3c([nH]c4ccccc34)C1c1[nH]c3ccccc3c1CC2 (configuration not stated) has a reported Activity of -3%

For record c1ccc2c(c1)CCN1CCc3c([nH]c4ccccc34)C21 (configuration not stated) the listed Activity is 0%

// Activity value for CN1CCc2c([nH]c3ccccc23)Cc2[nH]c3ccccc3c2CC1 : 9%

So, COc1cc2c(cc1OC)Cc1[nH]c3ccccc3c1CCN(C)CC2 ? Its Activity was 9%

// field: Activity; key: COc1cc2c(cc1OC)C1c3[nH]c4ccccc4c3CCN1CC2 (configuration not stated) ; value = 6%

// sample CN1CCc2ccccc2Cc2[nH]c3ccccc3c2CC1 , its Activity was 6%

Measured Activity of c1ccc2c3c([nH]c2c1)C1c2[nH]c4ccccc4c2CCN1CC3 : 0%

* * *

systemTested: Glutamate [NMDA] receptor (Homo sapiens) (UniProt Q05586+Q12879+Q13224+O15399+O60391+Q14957+Q8TCU5)
protocolDetails: Percent decrease of N-methyl-D-aspartate glutamate receptor binding using MK-801
Type: protein-complex assay
Parameters: concentration or dose not given beside the values
parameter: Activity (%)
Give a bare numeral; the unit % is implied.

response.value for C[N+]12CCc3c([nH]c4ccccc34)C1c1[nH]c3ccccc3c1CC2 (configuration not stated) (field: Activity) = -20

GET /value?item= CN1CCc2c([nH]c3ccccc23)Cc2[nH]c3ccccc3c2CC1 &field=Activity returns -56

Given item COc1cc2c(cc1OC)C1c3[nH]c4ccccc4c3CCN1CC2 (configuration not stated) , the value recorded as its Activity is -14

Briefly, Activity measured for c1ccc2c3c([nH]c2c1)C1c2[nH]c4ccccc4c2CCN1CC3 : -52

// Activity lookup, compound = c1ccc2c(c1)CCN1CCc3c([nH]c4ccccc34)C21 (configuration not stated) , result: -33

Reported Activity ( CN1CCc2ccccc2Cc2[nH]c3ccccc3c2CC1 ) = -18

COc1cc2c(cc1OC)Cc1[nH]c3ccccc3c1CCN(C)CC2 yielded Activity of -44
